# TEST DETAILS: gradient 5% acetonitrile 3 min, to 50% in 2 min, to 85% in 15 min, held 3 min, 100 µL/min
# STATED CONDITIONS: column: Zorbax Extend-C18 2.1 x 50 mm; eluents: water / acetonitrile, 0.1% formic acid
Lab note: anything with RP-LC retention time below 700 s is marked class 1; values at 700 s or higher are marked class 0.

These recorded examples may help you get a feel for the data.
INSERT INTO assay_data (compound, label_class) VALUES
  ('CC1(C(=O)NCc2ccc(F)cc2)CCN(S(=O)(=O)c2ccc(Br)s2)CC1', 'class 0'),
  ('CCOc1ccccc1NC(=O)c1cn(-c2cc(N3CCC(C)CC3)ncn2)cn1', 'class 0'),
  ('COC(=O)c1cccc(C(=O)NC2(c3nc(C)no3)CCCCC2)c1', 'class 0'),
  ('CCCN(C)S(=O)(=O)c1cc(-c2nc(C)cs2)n(CC(=O)N2CCCCC2)c1', 'class 0'),
  ('O=C(NC1CCN(Cc2ccccc2)CC1)c1ccc(I)cc1', 'class 0'),
  ('COc1cccc(N2CCN(C(=O)CN3CCN(Cc4ccccc4)C(=O)C3=O)CC2)c1', 'class 0'),
  ('O=C(Cn1nc(C2CC2)cc1C(=O)N1CCCC1)N1CCN(c2ccc(Cl)cc2)CC1', 'class 0'),
  ('Cc1ccc(N2CCN(CC(O)c3ccc4c(c3)OCO4)CC2)cc1 (stereo not given)', 'class 1');

Query block: Input Cc1ccc(NC(=O)c2nnc(CCCC(=O)NCCc3c[nH]c4ccc(C)cc34)s2)cc1 ; condition: RP-LC retention time strictly below 700 s. Does it hold?
Result block: class 0

Query block: Input CCOc1cc(=O)c(C(=O)N2CCC(C(N)=O)CC2)nn1-c1ccc(F)cc1 ; condition: RP-LC retention time strictly below 700 s. Does it hold?
Result block: class 1

Query block: Input CCCc1noc(-c2ccc3nnc(CC(=O)Nc4ccc(C)c(C)c4)n3c2)n1 ; condition: RP-LC retention time strictly below 700 s. Does it hold?
Result block: class 0

Query block: Input C=CCn1c(=O)c2ccccc2n(Cc2nc(-c3cccc(Cl)c3)no2)c1=O ; condition: RP-LC retention time strictly below 700 s. Does it hold?
Result block: class 0

Query block: Input CCCCC(=O)Nc1cnc(N(CC)CC(=O)C(C)(C)C)c(C(=O)O)c1 ; condition: RP-LC retention time strictly below 700 s. Does it hold?
Result block: class 1

Query block: Input CCCN(C(=O)c1cccc(NC(=O)[C@H]2[C@@H]3C[C@@H]4[C@H]2C(=O)O[C@@H]4C3)c1)c1ccccc1F ; condition: RP-LC retention time strictly below 700 s. Does it hold?
Result block: class 0

Query block: Input Cn1cnc(S(=O)(=O)N2CCCCC2c2nc(-c3cccnc3)n[nH]2)c1 (stereo not given) ; condition: RP-LC retention time strictly below 700 s. Does it hold?
Result block: class 1

Query block: Input Cc1ccc(S(=O)(=O)N2CCc3nc[nH]c3C2)cc1C ; condition: RP-LC retention time strictly below 700 s. Does it hold?
Result block: class 1

Query block: Input CCCCNC(=O)c1cccc2c1CCN2C(=O)C1CC1 ; condition: RP-LC retention time strictly below 700 s. Does it hold?
Result block: class 0

Query block: Input O=C(Nc1cccc(Br)c1)N1CCc2nc[nH]c2C1 ; condition: RP-LC retention time strictly below 700 s. Does it hold?
Result block: class 1

Query block: Input COCCCNC(=O)C1CCC(=O)N(c2ccc(OC)cc2)C1c1ccc(F)cc1 (stereo not given) ; condition: RP-LC retention time strictly below 700 s. Does it hold?
Result block: class 1

====

The following compounds are listed with their measured RP-LC retention time values.
# TEST DETAILS: gradient 5% acetonitrile 3 min, to 50% in 2 min, to 85% in 15 min, held 3 min, 100 µL/min
# STATED CONDITIONS: column: Zorbax Extend-C18 2.1 x 50 mm; eluents: water / acetonitrile, 0.1% formic acid
Unit s implied. Number only.

INSERT INTO measurements (compound, reading_unit, value) VALUES
  ('Cc1nc2cccnc2n1CCN1CCN(C(=O)Nc2ccc(F)cc2F)CC1', 's', 585),
  ('Cc1nc2cccnc2n1C1CCN(C(=O)Nc2ccc3c(c2)CCC3)C1 (stereo not given)', 's', 620),
  ('O=C(c1ccco1)N1CCCn2nc(-c3cccs3)cc2C1', 's', 750),
  ('Cc1ccc2nc(N3CCN(Cc4ccccc4)CC3)c(-c3noc(C)n3)cc2c1', 's', 686);

Below: the item to evaluate.
Query block: So what's the measured RP-LC retention time for this one? COc1ccc(C(=O)NC(c2ccccc2)c2nnc(N3CCCC3)o2)cc1 (stereo not given)
Result block: 756

====

The following compounds are listed with their measured RP-LC retention time values.
# TEST DETAILS: gradient 5% acetonitrile 3 min, to 50% in 2 min, to 85% in 15 min, held 3 min, 100 µL/min
# STATED CONDITIONS: column: Zorbax Extend-C18 2.1 x 50 mm; eluents: water / acetonitrile, 0.1% formic acid
Unit s implied. Number only.

Reference set (9 entries):
INSERT INTO assay_data (compound, value) VALUES
  ('COc1ccccc1OCC(O)COC(N)=O (stereo not given)', 650),
  ('CCOc1ccccc1NC(=O)C1CCN(S(=O)(=O)c2cn(C(C)C)cn2)CC1', 846),
  ('COCCOCc1nc(C2CCCN2C(=O)c2sccc2C)no1 (stereo not given)', 716),
  ('Cc1nn(C(C)C(=O)NCCc2ccco2)c(=O)c2nn(-c3ccccc3)c(C)c12 (stereo not given)', 788),
  ('O=C(OCC12CC3CC(CC(C3)C1)C2)c1ccc(NCc2cc(O)ccc2O)cc1', 1080),
  ('CCN1C(=O)CCc2cc(NC(=O)Cc3ccc(F)cc3)ccc21', 780),
  ('CCn1ncc(C(=O)N2CC[C@@H]3CN(S(C)(=O)=O)[C@@H]3C2)c1C', 594),
  ('O=C(CC1c2ncccc2C(=O)N1c1ccc(F)cc1)NCc1cc(F)ccc1F (stereo not given)', 737),
  ('CCn1cc(C)c(C(=O)O)c1CC(=O)N1CCN(C2CCCCC2)CC1', 597);

Query block: So what's the measured RP-LC retention time for this one? Cc1ccc(N2CC(c3nc(-c4ccccc4F)no3)CC2=O)cc1C (stereo not given)
Result block: 1020

====

# TEST DETAILS: gradient 5% acetonitrile 3 min, to 50% in 2 min, to 85% in 15 min, held 3 min, 100 µL/min
# STATED CONDITIONS: column: Zorbax Extend-C18 2.1 x 50 mm; eluents: water / acetonitrile, 0.1% formic acid
MEASURED PROPERTY: RP-LC retention time (s)
Unit s implied. Number only.

Reference set (3 entries):
INSERT INTO assay_data (molecule, reading_unit, value) VALUES
  ('COc1ccc(NC(=O)N2CCc3c(c(-c4nnc(-c5ccc(F)cc5)o4)nn3C)C2)cc1OC', 's', 766),
  ('CC(=O)Nc1cccc(C2=NN(C(C)=O)C(c3cccs3)C2)c1 (stereo not given)', 's', 685),
  ('COc1cccc(CCC(=O)N2CCc3nc[nH]c3C2)c1', 's', 575);

Query block: So what's the measured RP-LC retention time for this one? Cn1cc(S(=O)(=O)NCc2ccc(F)cc2Cl)c2cccnc21
Result block: 821

Query block: So what's the measured RP-LC retention time for this one? CS(=O)(=O)N1CCC(OC2CCN(C(=O)NCc3ccc(F)cc3)CC2)CC1
Result block: 730

Query block: So what's the measured RP-LC retention time for this one? COC(=O)CNC(=O)NC(Cc1ccc(F)cc1)Cc1ccc2c(c1)OCO2 (stereo not given)
Result block: 834

Query block: So what's the measured RP-LC retention time for this one? O=C(CSc1nc2ccccc2s1)Nc1cccn2cc(-c3ccccc3)nc12
Result block: 1110

Query block: So what's the measured RP-LC retention time for this one? Cc1cc(C(=O)N2C[C@@H](CO)[C@H](N(C)C)C2)ccc1Br
Result block: 597

Query block: So what's the measured RP-LC retention time for this one? Cc1cc(-c2nnc(-c3ccc(F)cc3)o2)c(C)n1CC(=O)Nc1ccccc1
Result block: 977

====

# TEST DETAILS: gradient 5% acetonitrile 3 min, to 50% in 2 min, to 85% in 15 min, held 3 min, 100 µL/min
# STATED CONDITIONS: column: Zorbax Extend-C18 2.1 x 50 mm; eluents: water / acetonitrile, 0.1% formic acid
MEASURED PROPERTY: RP-LC retention time
Numeric answer plus unit only.

INSERT INTO results (compound, measured_property, value) VALUES
  ('COC(=O)c1cc2n(n1)CC(C)(C(=O)NC1CCCCC1)N(c1ccccc1F)C2=O (stereo not given)', 'RP-LC retention time', '853 s'),
  ('COc1ccc(-c2cn3ccn(-c4cccc(F)c4)c(=O)c3n2)cc1', 'RP-LC retention time', '821 s'),
  ('COc1ccc(N2CCN(Cc3nc4ccccc4[nH]c3=O)CC2)cc1', 'RP-LC retention time', '614 s'),
  ('Cc1ccc(NC(=O)Cn2nc(N3CCOCC3)c3ccccc3c2=O)cc1F', 'RP-LC retention time', '836 s'),
  ('COC(=O)c1ccc2c(=O)n(-c3cccc(OC)c3)c(N3CCCCCC3)nc2c1', 'RP-LC retention time', '1210 s'),
  ('O=C(Cc1ccc(F)cc1)NCC#CCN1CCc2ccccc2C1', 'RP-LC retention time', '565 s'),
  ('O=C(CCc1ccccc1)NC1CCN(c2nnc3ccc(Cl)cn23)CC1', 'RP-LC retention time', '739 s'),
  ('O=C(Nc1ccc(OCc2nnc(-c3ccccc3)o2)cc1)C1COc2ccccc2O1 (stereo not given)', 'RP-LC retention time', '984 s'),
  ('Cn1c(=O)c2ccn(CC(=O)NCCCc3ccccc3)c2n(C)c1=O', 'RP-LC retention time', '699 s');

Below: the item to evaluate.
Query block: So what's the measured RP-LC retention time for this one? COc1ccc(-c2csc(Nc3ccc(C)cc3)n2)cc1
Result block: 1190 s
